- System: LXRb:RXRa (NR concentration 270 nM, RXRa partner concentration 90 nM)
- ASSAY_COMMENT: PBM binding z-score (relative to random genomic background probes); higher = stronger binding; sequences stand for … in GC…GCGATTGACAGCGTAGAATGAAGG
READOUT_LABEL: PBM binding z-score
Numbers only.

Lab note: each sequence below needs its PBM binding z-score filled in.
1. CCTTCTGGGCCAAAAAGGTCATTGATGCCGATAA
2. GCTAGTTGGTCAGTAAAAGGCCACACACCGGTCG
3. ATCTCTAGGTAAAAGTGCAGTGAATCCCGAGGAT
4. CTCGATAGGTCGGTTGAGGTGAGTATACGGATAA
5. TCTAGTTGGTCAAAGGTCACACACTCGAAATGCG
6. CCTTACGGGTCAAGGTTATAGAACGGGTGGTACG

Result:
1: 3.9; 2: -0.23; 3: 0.0767; 4: 0.0394; 5: 5.53; 6: 3

Lab note: each sequence below needs its PBM binding z-score filled in.
1. ACTAGTTGGTCAGCTGAGTTCACACACAATTCGG
2. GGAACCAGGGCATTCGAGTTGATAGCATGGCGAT
3. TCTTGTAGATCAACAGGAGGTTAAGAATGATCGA
4. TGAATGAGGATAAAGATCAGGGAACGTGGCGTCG
5. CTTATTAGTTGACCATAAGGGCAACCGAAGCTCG
6. CAAACTAGGTAAAGGTCAAAGTCGGTTTGTGCCA

Result:
1: 1.59; 2: 0.0646; 3: 0.703; 4: -0.514; 5: 0.373; 6: 5.55

Lab note: each sequence below needs its PBM binding z-score filled in.
1. ACTTACGGGTCAACTAGGTTATAGCACGCGTATA
2. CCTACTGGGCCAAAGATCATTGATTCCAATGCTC
3. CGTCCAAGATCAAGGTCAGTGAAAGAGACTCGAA
4. ATCGAAAGGTCGACGAGGTGAGTATACACCGTTT

Result:
1. 4.49
2. -0.317
3. 1.7
4. 2.73

Lab note: each sequence below needs its PBM binding z-score filled in.
1. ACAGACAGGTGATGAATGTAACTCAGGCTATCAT
2. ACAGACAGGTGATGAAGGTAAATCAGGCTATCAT
3. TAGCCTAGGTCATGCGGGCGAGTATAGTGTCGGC
4. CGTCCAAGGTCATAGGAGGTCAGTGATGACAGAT

Result:
0.1
0.169
1.21
5.96

Lab note: each sequence below needs its PBM binding z-score filled in.
1. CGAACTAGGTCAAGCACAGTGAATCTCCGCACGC
2. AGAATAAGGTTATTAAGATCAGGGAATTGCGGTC

Result:
[1.67, 1.32]

Lab note: each sequence below needs its PBM binding z-score filled in.
1. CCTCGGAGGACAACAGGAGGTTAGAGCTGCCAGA
2. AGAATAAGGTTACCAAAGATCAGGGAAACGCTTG
3. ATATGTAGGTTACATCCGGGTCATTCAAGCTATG
4. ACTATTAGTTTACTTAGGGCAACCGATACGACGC
5. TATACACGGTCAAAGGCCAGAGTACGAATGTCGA

Result:
-0.556
2.57
3.45
0.0496
0.929

Lab note: each sequence below needs its PBM binding z-score filled in.
1. AGAATGAGGTTTAGATCAGGGAAACAGAATACAT
2. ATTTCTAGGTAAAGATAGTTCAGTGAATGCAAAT
3. CGTCCAAGGTCATAGGAGGTTAGTGAAGACAGAT
4. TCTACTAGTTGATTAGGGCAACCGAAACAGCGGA
5. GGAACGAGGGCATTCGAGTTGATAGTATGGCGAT
6. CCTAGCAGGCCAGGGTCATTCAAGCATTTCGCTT
7. TGTACAGGGTCAAAGGCCAGAGTACGAATGTCGA

Result:
-0.395
1.02
4.77
0.0832
0.436
2.54
4.39

Request: Field request: PBM binding z-score | item: `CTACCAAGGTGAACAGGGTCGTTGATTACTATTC`
Result: 1.58
